Data credit: patent US9701628B2

Tested on: Staphylococcus aureus ATCC 49951
experiment-summary: MIC by broth microdilution (CLSI) against Staphylococcus aureus ATCC 49951
Format: cell-based
condition-summary: Staphylococcus aureus ATCC 49951, in vitro
assay-readout: MIC

>>> endpoint_result("CC1C(O)C(C)(CNCCCCCCNC(=N)N)CC(OC(=O)CSc2ccc(CC(=O)NCCCN)cc2)C2(C)C(C)CCC13CCC(=O)C32.Cl.Cl.Cl (centres unmarked)")
"≦0.03 μg/mL"
>>> endpoint_result("C=C[C@]1(C)C[C@@H](OC(=O)CSC(C)(C)CNC(=O)[C@H](N)C(C)C)[C@]2(C)[C@H](C)CC[C@]3(CCC(=O)[C@H]32)[C@@H](C)[C@@H]1O [Econor, econor, reference compound]")
"≦0.03 μg/mL"
>>> endpoint_result("CC1C(O)C(C)(CNCCCN)CC(OC(=O)CSC2CCC(N)CC2O)C2(C)C(C)CCC13CCC(=O)C32.Cl.Cl.Cl (centres unmarked) [Example C3, reference compound]")
"16 µg/mL"
>>> endpoint_result("C[C@@H]1CC[C@@]23CCC(=O)[C@H]2[C@]1(C)[C@H](OC(=O)CSc1cccc(CN)c1)C[C@](C)(CNCCCN)[C@@H](O)[C@@H]3C.Cl.Cl.Cl")
"0.06 µg/mL"

Next compound, please.
Answer with reported MIC of CC1C(O)C(C)(CNCCCCCCN)CC(OC(=O)CSc2cccc(CO)c2)C2(C)C(C)CCC13CCC(=O)C32.Cl.Cl (centres unmarked)
0.125 µg/mL

====

Tested on: Staphylococcus aureus ATCC 49951
experiment-summary: MIC by broth microdilution (CLSI) against Staphylococcus aureus ATCC 49951
Assay type: cell-based
condition-summary: ATCC49951; Staphylococcus aureus ATCC 49951, in vitro; read-out: MIC
Where a name gives a salt, the structure may show the parent alone.
MIC by entry:

Worked set:
>>> endpoint_result("C[C@@H]1CC[C@@]23CCC(=O)[C@H]2[C@]1(C)[C@H](OC(=O)CSc1ccc(CCCN)cc1)C[C@](C)(CNCCCCCCN)[C@@H](O)[C@@H]3C [Example 48, trihydrochloride]")
"≤ 0.03 µg/mL"
>>> endpoint_result("C[C@@H]1CC[C@@]23CCC(=O)[C@H]2[C@]1(C)[C@H](OC(=O)CSc1ccc(C(=O)NCc2ccc(CN)cc2)cc1)C[C@](C)(CNCCCCCCN)[C@@H](O)[C@@H]3C [Example 23, trihydrochloride]")
"≤ 0.03 µg/mL"

Next molecule, please.
Please report the measured MIC for C[C@@H]1CC[C@@]23CCC(=O)[C@H]2[C@]1(C)[C@H](OC(=O)CSc1ccc(CC(=O)NCCCN)cc1)C[C@](C)(CNCCCN)[C@@H](O)[C@@H]3C [Example 1, trihydrochloride] tested on Staphylococcus aureus ATCC 49951.
≤ 0.03 µg/mL

====

Test system: Staphylococcus aureus ATCC 49951
experiment-summary: MIC by broth microdilution (CLSI) against Staphylococcus aureus ATCC 49951
Type: cell-based
condition-summary: Staphylococcus aureus ATCC 49951, in vitro
assay-readout: MIC

>>> endpoint_result("C=CC1(C)CC(OC(=O)CSc2ccc(CC(=O)NCC(C)N)cc2)C2(C)C(C)CCC3(CCC(=O)C32)C(C)C1O.Cl (stereo not drawn) [Example C2, reference compound]")
"≦0.03 μg/mL"
>>> endpoint_result("CC1C(O)C(C)(CNCCCN)CC(OC(=O)CSc2ccc(CNCc3ccc(CN)cc3)cc2)C2(C)C(C)CCC13CCC(=O)C32.Cl.Cl.Cl.Cl (stereo not drawn)")
"≦0.03 μg/mL"
>>> endpoint_result("CC1C(O)C(C)(CNCc2ccc(CN)cc2)CC(OC(=O)CSc2ccc(CC(=O)NCCCN)cc2)C2(C)C(C)CCC13CCC(=O)C32.Cl.Cl.Cl (stereo not drawn)")
"≦0.03 μg/mL"
